The measurements presented in this section are drawn from patent US20220220218A1.

Target: T1, human CD73 (huCD73) protein, antigen of the Biacore assay (human, UniProt P21589 27-547, limits assumed)
T1 construct: also called human CD73 antigen
T1 sequence (looked up): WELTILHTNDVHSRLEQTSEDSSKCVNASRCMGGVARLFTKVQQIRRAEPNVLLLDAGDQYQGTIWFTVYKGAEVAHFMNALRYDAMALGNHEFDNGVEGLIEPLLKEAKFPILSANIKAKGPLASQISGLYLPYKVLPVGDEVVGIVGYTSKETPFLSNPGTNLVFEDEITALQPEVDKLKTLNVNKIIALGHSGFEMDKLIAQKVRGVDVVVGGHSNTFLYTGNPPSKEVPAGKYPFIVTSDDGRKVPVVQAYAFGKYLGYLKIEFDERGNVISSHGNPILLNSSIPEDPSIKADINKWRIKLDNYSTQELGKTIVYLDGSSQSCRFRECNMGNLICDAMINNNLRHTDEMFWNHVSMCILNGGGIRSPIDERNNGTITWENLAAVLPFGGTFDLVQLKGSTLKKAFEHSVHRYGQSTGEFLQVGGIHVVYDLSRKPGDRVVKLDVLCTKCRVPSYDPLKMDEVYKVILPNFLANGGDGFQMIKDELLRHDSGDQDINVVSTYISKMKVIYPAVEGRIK
Assay: SPR Biacore T200; antibody captured on Protein A chip, CD73 in flow; 1:1 Langmuir
quantity-kind: pKd
Just the number, please; pKd means minus log10 of the concentration in mol/L.

Sample records with pKd:
| binder | reported |
| --- | --- |
| Hab127.31e (antibody, V domains shown, VL3 + VH1e, HCDR2 hot-spot variant; full-length antibody) VH: EVQLVQSGAEVKKPGASVKVSCKASGYTFTAYFMNWVRQAPGQGLEWMGRIYHNEGDTFYSQKFKGRVTMTVDKSTSTVYMELSSLRSEDTAVYYCATSYVGDWGQGTTVTVSS VL: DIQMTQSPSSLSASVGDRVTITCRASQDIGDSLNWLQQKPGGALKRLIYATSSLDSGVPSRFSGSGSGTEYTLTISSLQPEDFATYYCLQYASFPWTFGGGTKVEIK | 9.67 |
| Hab127.41 (antibody, V domains shown, VL4 + VH1; recombined with human heavy and light constant regions) VH: EVQLVQSGAEVKKPGASVKVSCKASGYTFTAYFMNWVRQAPGQGLEWMGRIYHNNGDTFYSQKFKGRVTMTVDKSTSTVYMELSSLRSEDTAVYYCATSYVGDWGQGTTVTVSS VL: DIQMTQSPSSLSASVGDRVTITCRASQDIGDSLNWLQQKPGGALKRLIYATSSLDSGVPSRFSGSGSGSDYTLTISSLQPEDFATYYCLQYASFPWTFGGGTKVEIK | 9.72 |

Request: State the recorded pKd for this entry: Hab108.35 (antibody, V domains shown, VL3 + VH5; full-length antibody) VH: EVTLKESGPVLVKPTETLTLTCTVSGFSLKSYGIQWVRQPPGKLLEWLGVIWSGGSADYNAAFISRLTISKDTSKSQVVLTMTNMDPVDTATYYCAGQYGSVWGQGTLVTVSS VL: DIQMTQSPSSLSASVGDRVTITCRASQDIGDRLNWLQQKPGGAIKRLIYATSSLDSGVPSRFSGSGSGTEYTLTISSLQPEDFATYYCLQYAGSWTFGGGTKVEIK
Result: 9.55
